- Tested on: Mus musculus
- PROCEDURE_DETAILS: Toxicity in CD1 mouse assessed as haemoglobin level at 450 mg/kg, po after 3 days
- Assay type: organism-based
- Design: dose 450 mg/kg, route oral
- STATED_CONDITIONS: in vivo, 72 h
REPORTED_PROPERTY: Activity (g/dL)
Report the figure in g/dL without appending any unit label.

Request: Please give the documented Activity of CCCCOC(=O)N/N=C/C=C/c1ccc([N+](=O)[O-])o1
Result: 13.5

Request: Query Activity for CCCCCCCCOC(=O)N/N=C/c1ccc([N+](=O)[O-])o1
Result: 11.9

Request: Complete the entry with Activity for CCCCCCOC(=O)N/N=C/c1ccc([N+](=O)[O-])o1
Result: 10.6

Request: Give Activity for CCCCCCNC(=O)N/N=C/C=C/c1ccc([N+](=O)[O-])o1
Result: 16.3

Request: Look up and state reported Activity for CC1CS(=O)(=O)CCN1/N=C/c1ccc([N+](=O)[O-])o1 (stereo unspecified) [NIFURTIMOX]
Result: 13.5

Request: Return Activity (reported value) for this compound: CCCCCCOC(=O)N/N=C/C=C/c1ccc([N+](=O)[O-])o1
Result: 13.5
